- TARGET DESC: T1, PDZD2_1, O15018
- T1 sequence (O15018 80-192, limits assumed, looked up): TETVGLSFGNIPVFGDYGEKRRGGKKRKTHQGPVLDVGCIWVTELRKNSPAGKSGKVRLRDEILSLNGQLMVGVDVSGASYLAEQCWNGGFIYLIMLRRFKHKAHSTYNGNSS
- ASSAY NOTES: holdup assay
- Parameters: key: below the threshold = too weak to quantify, mostly under pKd 3.1 to 4
- DETAILS: plain residues with an end cap or a label only (N-terminal biotin on a linker: ttds)
READOUT: pKd

INSERT INTO assay_data (binder, readout, value_reported) VALUES
  ('SKPTRRETEV [HPV35-E6, P27228]', 'pKd', 'below the threshold'),
  ('RHTTSTETAV [HPV30-E6, P36809]', 'pKd', 'below the threshold'),
  ('RPLPRKVSQL [DOCK4, Q8N1I0]', 'pKd', 'below the threshold'),
  ('SSLQSLETSV [ATP2B4, P23634]', 'pKd', 'below the threshold'),
  ('QRQARSETLV [HPV59-E6, Q81964]', 'pKd', 'below the threshold'),
  ('RLPKIKETTV [FRMPD4, Q14CM0]', 'pKd', 'below the threshold'),
  ('RLQRRRETQV [HPV18-E6, P06463]', 'pKd', 'below the threshold'),
  ('SGSRPSATVV [HPV73-E6, Q82005]', 'pKd', 'below the threshold');
